Entry source: ChEMBL document CHEMBL4196238

assay: AUC (0 to infinity) in Sprague-Dawley rat at 1 mg/kg, iv; assay type: ADME, organism-based; design: dose 1 mg/kg, time infinity, route intravenous; conditions: in vivo
Measured parameter: AUC(0-inf) (µM·h)

[P] C#C[C@]1(CO)O[C@@H](n2cnc3c(N)nc(F)nc32)C[C@@H]1O
[Q] C#C[C@]1(CO)C[C@@H](n2cnc3c(=O)[nH]c(N)nc32)C[C@@H]1O
Lab note: check whether P or Q shows the higher recorded AUC(0-inf). Respond using the label that marks the chosen record. Q

###

experiment: Cytotoxicity in human MT4 cells expressing GFP assessed as reduction in cell viability incubated for 48 hrs by cell-titer-Glo luminescent cell viability assay; assay type: cell-based
Measured parameter: CC50 at 48 h

C#C[C@]1(CO[P@@](=O)(N[C@@H](C)C(=O)OC(C)C)Oc2ccccc2)C[C@@H](n2cnc3c(OCC)nc(N)nc32)C[C@@H]1O    > 42 µM
C#CC1(CO)CC(n2cc(C)c(=O)[nH]c2=O)CC1O (racemic)    > 42 µM
C#C[C@@]1(CO)C[C@H](n2cnc3c(=O)[nH]c(N)nc32)C[C@H]1O    > 42 µM
C#CC1(CO)CC(n2cnc3c(N)nc(Cl)nc32)CC1O (racemic)    > 42 µM
C#C[C@@]1(CO[P@@](=O)(N[C@@H](C)C(=O)OC(C)C)Oc2ccccc2)C[C@H](n2cnc3c(OCC)nc(N)nc32)C[C@H]1O    > 4.2 µM

Can you look up the measured CC50 at 48 h of Cc1cn(C2CC(O)C(C#N)(CO)C2)c(=O)[nH]c1=O (racemic) for me? > 42 µM

Okay, and C#CC1(CO)CC(n2cnc3c(N)nc(F)nc32)CC1O (racemic) ? > 42 µM
